study-target: T1, c-erbB-2 ECD with a Ser-Gly-His6 C-terminal fusion (UniProt P04626 23-652)
T1 construct: extracellular domain; Expressed from CHO cells, IMAC purified; coupled to a CM5 chip, coated on plates, or biotinylated with NHS-LC-biotin; also called c-erbB-2 extracellular domain; biotinylated c-erbB-2 ECD
test-protocol: SPR BIAcore
Kindly state koff for each of the entries shown.
Please report the result as a number followed by the unit.

What value of measured koff is listed for C6ML3-9 (scFv, template (wt) of the VH CDR3 libraries; also called C6ML3-9 (wt); C6ML-9) scFv: QVQLLQSGAELKKPGESLKISCKGSGYSFTSYWIAWVRQMPGKGLEYMGLIYPGDSDTKYSPSFQGQVTISVDKSVSTAYLQWSSLKPSDSAVYFCARHDVGYCSSSNCAKWPEYFQHWGQGTLVTVSSGGGGSGGGGSGGGGSQSVLTQPPSVSAAPGQKVTISCSGSSSNIGNNYVSWYQQLPGTAPKLLIYGHTNRPAGVPDRFSGSKSGTSASLAISGFRSEDEADYYCASWDYTLSGWVFGGGTKLTVLG ?
0.00092 s⁻¹

What value of measured koff is listed for C6ML3-4 (scFv) scFv: QVQLLQSGAELKKPGESLKISCKGSGYSFTSYWIAWVRQMPGKGLEYMGLIYPGDSDTKYSPSFQGQVTISVDKSVSTAYLQWSSLKPSDSAVYFCARHDVGYCSSSNCAKWPEYFQHWGQGTLVTVSSGGGGSGGGGSGGGGSQSVLTQPPSVSAAPGQKVTISCSGSSSNIGNNYVSWYQQLPGTAPKLLIYGHTNRPAGVPDRFSGSKSGTSASLAISGFRSEDEADYYCASWEYSLWGWVFGGGTKLTVLG ?
0.0014 s⁻¹

What value of measured koff is listed for C6ML3-13 (scFv) scFv: QVQLLQSGAELKKPGESLKISCKGSGYSFTSYWIAWVRQMPGKGLEYMGLIYPGDSDTKYSPSFQGQVTISVDKSVSTAYLQWSSLKPSDSAVYFCARHDVGYCSSSNCAKWPEYFQHWGQGTLVTVSSGGGGSGGGGSGGGGSQSVLTQPPSVSAAPGQKVTISCSGSSSNIGNNYVSWYQQLPGTAPKLLIYGHTNRPAGVPDRFSGSKSGTSASLAISGFRSEDEADYYCAAWDATLWGWVFGGGTKLTVLG ?
0.0021 s⁻¹
